Value source: paper PMC7822874

The following compounds are shown together with reported viability at 48 h, 1 µM values.
TEST SUMMARY: in vitro; further: reference of the scale not given here
EXPERIMENTAL CONTEXT: human
Express your answer in %, writing the number without its unit.

Request: # lookup: viability at 48 h, 1 µM of CN1C2CCC1/C(=C/c1ccccn1)C(=O)/C2=C\c1ccccn1
Result: 76.4

Request: # lookup: viability at 48 h, 1 µM of COc1ccc2ccc(O)c(CN3CC=C(c4ccccc4)CC3)c2c1
Result: 107

Request: # lookup: viability at 48 h, 1 µM of CCOc1ccc(NC(=O)c2cc3ccccc3cc2O)cc1
Result: 100

----------
TEST SUMMARY: in vitro
EXPERIMENTAL CONTEXT: human, HepG2-A16-CD81EGFP cells, uninfected
ASSAY ENDPOINT: viability at 48 h, 3 µM (%)
Express your answer in %, writing the number without its unit.

Guide cases for viability at 48 h, 3 µM, answers given:
Request: # lookup: viability at 48 h, 3 µM of COc1ccc(C(C(=O)Nc2ccc(C(C)C)cc2)N(Cc2ccco2)C(=O)CC2NC(=O)NC2=O)cc1 (centres unmarked) [MLS000729756-01]
Result: 94

Request: # lookup: viability at 48 h, 3 µM of C=C(C)COc1ccc(-c2ncnc(C(F)(F)F)c2-c2ccccc2)c(O)c1 [MLS001216193-01]
Result: 97

Request: # lookup: viability at 48 h, 3 µM of COc1ccc(S(=O)(=O)N2CCC3(CC2)OCCN3S(=O)(=O)c2c(C)cc(C)cc2C)cc1 [MLS001237293-01]
Result: 103

Others:
Request: # lookup: viability at 48 h, 3 µM of CC(OC(=O)CCc1cc(C(C)(C)C)c(O)c(C(C)(C)C)c1)C(=O)NC1CC1 (centres unmarked) [MLS001159754-01]
Result: 101

Request: # lookup: viability at 48 h, 3 µM of COCCCNc1nc2cc(OC)c(OC)cc2c2nc(-c3ccccc3)nn12 [NCGC00112853-01]
Result: 99

Request: # lookup: viability at 48 h, 3 µM of CN(C)CCCNc1cc(N2CCN(C3CCCCC3)CC2)c2noc3c2c1C(=O)c1ccccc1-3 [NCGC00111069-01]
Result: 93.8

Request: # lookup: viability at 48 h, 3 µM of CC(CCc1ccccc1)NCC(O)c1cccc([N+](=O)[O-])c1 (centres unmarked) [MLS000712395-01]
Result: 106

Request: # lookup: viability at 48 h, 3 µM of O=C(NC(c1ccccc1)c1cc(Cl)c2cccnc2c1O)c1cccnc1 (centres unmarked) [MLS000573359-01]
Result: 66

Request: # lookup: viability at 48 h, 3 µM of COc1ccc(-c2noc(-c3cccn3CC(=O)Nc3cccc(Cl)c3C)n2)cc1F [NCGC00445510-01]
Result: 105

Request: # lookup: viability at 48 h, 3 µM of O=C1c2ccccc2C2=Nc3ccccc3SC(c3ccccc3F)C12 (centres unmarked) [MLS000562246-01]
Result: 95

Request: # lookup: viability at 48 h, 3 µM of CCN1CCN(Cc2ccc(NC(=O)c3cc(NC(=O)c4nccnc4N)cc(OC)c3)cc2C(F)(F)F)CC1 [MLS000911568-01]
Result: 87
